# procedure_summary: NP TLC on non-impregnated control plates
# Assay type: physicochemical
# run_conditions: Table S3, non-impregnated NP plate; acetonitrile/acetate buffer pH 7.4/methanol 60:20:20
assay_metric: CNP (Rf, control NP plate)

>  <compound>
C[C@H](CS)C(=O)N1CCC[C@H]1C(=O)O

>  <experimental_result>
0.77

$$$$
>  <compound>
CN(C)CCc1c[nH]c2ccc(Cn3cncn3)cc12

>  <experimental_result>
0.20

$$$$
>  <compound>
CN1CCC(=C2c3ccccc3C=Cc3ccccc32)CC1

>  <experimental_result>
0.45

$$$$
>  <compound>
CCCc1nn(C)c2c(=O)[nH]c(-c3cc(S(=O)(=O)N4CCN(C)CC4)ccc3OCC)nc12

>  <experimental_result>
0.69

$$$$
>  <compound>
O=C1CN=C(c2ccccn2)c2cc(Br)ccc2N1

>  <experimental_result>
0.87

$$$$
>  <compound>
CC(C)(C(=O)O)c1ccc(C(O)CCCN2CCC(C(O)(c3ccccc3)c3ccccc3)CC2)cc1 (stereo not drawn) [fexofenadine]

>  <experimental_result>
0.61

$$$$
>  <compound>
Cn1c(=O)c2c(ncn2C)n(C)c1=O

>  <experimental_result>
0.82

$$$$
>  <compound>
O=C(N[C@H](CO)[C@H](O)c1ccc([N+](=O)[O-])cc1)C(Cl)Cl

>  <experimental_result>
0.99

$$$$
>  <compound>
CN1C(=O)CC(=O)N(c2ccccc2)c2cc(Cl)ccc21

>  <experimental_result>
0.95

$$$$
>  <compound>
CN[C@H]1CC[C@@H](c2ccc(Cl)c(Cl)c2)c2ccccc21

>  <experimental_result>
0.53

$$$$
>  <compound>
Fc1ccc([C@@H]2CCNC[C@H]2COc2ccc3c(c2)OCO3)cc1

>  <experimental_result>
0.55

$$$$
>  <compound>
O=C(O)c1cn(C2CC2)c2cc(N3CCNCC3)c(F)cc2c1=O

>  <experimental_result>
0.11

$$$$
>  <compound>
CSc1ccc2c(c1)N(CCC1CCCCN1C)c1ccccc1S2 (stereo not drawn)

>  <experimental_result>
0.47

$$$$
>  <compound>
CN/C(=N/CCSCc1nc[nH]c1C)NC#N

>  <experimental_result>
0.64

$$$$
>  <compound>
OC(CNCC(O)C1CCc2cc(F)ccc2O1)C1CCc2cc(F)ccc2O1 (stereo not drawn)

>  <experimental_result>
0.75

$$$$
>  <compound>
CN(C)C(=O)C(CCN1CCC(O)(c2ccc(Cl)cc2)CC1)(c1ccccc1)c1ccccc1 [loperamide]

>  <experimental_result>
0.68

$$$$
>  <compound>
CN(C)CCCN1c2ccccc2Sc2ccc(Cl)cc21

>  <experimental_result>
0.43

$$$$
>  <compound>
CCCNCC(O)COc1ccccc1C(=O)CCc1ccccc1 (stereo not drawn)

>  <experimental_result>
0.57

$$$$
>  <compound>
OC(CCN1CCCCC1)(c1ccccc1)C1CC2C=CC1C2 (stereo not drawn)

>  <experimental_result>
0.68

$$$$
>  <compound>
CN(C)CCCN1c2ccccc2Sc2ccccc21

>  <experimental_result>
0.39

$$$$
>  <compound>
NC(N)=Nc1nc(CSCCC(N)=NS(N)(=O)=O)cs1

>  <experimental_result>
0.70

$$$$
